IC50 by entry:
biological target: NAMPT (Homo sapiens (Human), UniProt P43490); assay: Biochemical Inhibition Assay (NAMPT enzymatic reaction, NMN quantified by mass spectrometry); settings: 33 nM recombinant His-tagged NAMPT, 1 μM NAM, 30 min at rt
Sequence (P43490 whole entry): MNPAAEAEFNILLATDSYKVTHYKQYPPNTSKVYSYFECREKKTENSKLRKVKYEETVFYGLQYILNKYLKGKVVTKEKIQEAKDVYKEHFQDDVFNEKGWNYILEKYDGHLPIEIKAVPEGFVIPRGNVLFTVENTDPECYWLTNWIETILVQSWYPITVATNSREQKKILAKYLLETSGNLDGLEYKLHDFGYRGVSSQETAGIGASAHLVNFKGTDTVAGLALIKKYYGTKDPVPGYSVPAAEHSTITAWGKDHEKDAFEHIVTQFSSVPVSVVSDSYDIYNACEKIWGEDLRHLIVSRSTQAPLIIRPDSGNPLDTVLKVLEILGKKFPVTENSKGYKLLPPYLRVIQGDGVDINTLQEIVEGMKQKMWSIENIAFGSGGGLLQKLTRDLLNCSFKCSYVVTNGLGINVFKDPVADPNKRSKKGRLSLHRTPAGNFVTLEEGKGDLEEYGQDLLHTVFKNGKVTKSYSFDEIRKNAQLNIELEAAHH
readout.name: IC50 (nM)

molecule: Cn1ncc2c1CN(C(=O)NCc1ccc(S(=O)(=O)c3ccccc3)cn1)C2
readout.name: IC50
reading.unit: nM
data.value: 1380

molecule: N#Cc1cccc(S(=O)(=O)c2ccc(CNC(=O)c3ccc4nccn4c3)nc2)c1
readout.name: IC50
reading.unit: nM
data.value: 74

molecule: O=C(NCc1ccc(S(=O)(=O)c2cccc(C(F)(F)F)c2)cn1)c1ccc2nccn2c1
readout.name: IC50
reading.unit: nM
data.value: 12.7

molecule: O=C(NCc1ccc(S(=O)(=O)N2CCC(N3CCCC3)CC2)cn1)N1Cc2ccncc2C1
readout.name: IC50
reading.unit: nM
data.value: 75.7

molecule: O=C(NCc1ccc([S+]([O-])c2cc(F)cc(F)c2)cn1)N1Cc2ccncc2C1 (centres unmarked) [Example 116]
readout.name: IC50
reading.unit: nM
data.value: 15.5

molecule: Cn1cc(S(=O)(=O)c2ccc(CNC(=O)c3cc4ccncc4s3)nc2)cn1
readout.name: IC50
reading.unit: nM
data.value: 134

molecule: O=C(NCc1ccc(S(=O)(=O)c2cccc(C(F)(F)F)c2)cn1)c1cc2cnccc2[nH]1
readout.name: IC50
reading.unit: nM
data.value: 19.1

molecule: O=C(NCc1ccc(S(=O)(=O)c2cc(F)cc(N3CCOCC3)c2)cn1)c1cnc2[nH]ncc2c1
readout.name: IC50
reading.unit: nM
data.value: 32.9
